tested on: SNU719; experiment: Cell viability drug screen, 12-point dose-response AUC; format: cell-based, human; conditions: SNU719 cells; 72 hours
Counter-ions that a name gives are not always drawn.
Binary label based on Average Area Under the Viability Curve (AUC), AUC norm value with cut-off 4: below gives condition met, not below gives condition not met.

Is the reported Average Area Under the Viability Curve (AUC), AUC norm value for OC1(c2ccc(Cl)c(C(F)(F)F)c2)CCN(CCCC(c2ccc(F)cc2)c2ccc(F)cc2)CC1 [Penfluridol] strictly below 4?
condition met

Is the reported Average Area Under the Viability Curve (AUC), AUC norm value for CO[C@H]1C(=O)[C@]2(C)[C@@H](OC)C[C@H]3OC[C@@]3(OC(C)=O)[C@H]2[C@H](OC(=O)c2ccccc2)[C@]2(O)C[C@H](OC(=O)[C@H](O)[C@@H](NC(=O)OC(C)(C)C)c3ccccc3)C(C)=C1C2(C)C [Cabazitaxel (Jevtana), Cabazitaxel] strictly below 4?
condition not met

Is the reported Average Area Under the Viability Curve (AUC), AUC norm value for Cn1cc(CNCC2CCN(c3ncc(C(=O)NO)cn3)CC2)c2ccccc21 [JNJ-26481585] strictly below 4?
condition met

Is the reported Average Area Under the Viability Curve (AUC), AUC norm value for CC[C@]1(O)C[C@H]2CN(CCc3c([nH]c4ccccc34)[C@@](C(=O)OC)(c3cc4c(cc3OC)N(C=O)[C@H]3[C@@](O)(C(=O)OC)[C@H](OC(C)=O)[C@]5(CC)C=CCN6CC[C@]43[C@@H]65)C2)C1 [Vincristine] strictly below 4?
condition not met

Is the reported Average Area Under the Viability Curve (AUC), AUC norm value for CCCCC(CC)CNC(=N)NC(=N)NCCCCCCNC(=N)NC(=N)NCC(CC)CCCC (stereo not drawn) [Alexidine HCl] strictly below 4?
condition met

Is the reported Average Area Under the Viability Curve (AUC), AUC norm value for COc1cccc2c1C(=O)c1c(O)c3c(c(O)c1C2=O)C[C@@](O)(C(C)=O)C[C@@H]3O[C@H]1C[C@H](N)[C@H](O)[C@H](C)O1 [Daunorubicin HCl (Daunomycin HCl), Daunorubicin HCl] strictly below 4?
condition met

Is the reported Average Area Under the Viability Curve (AUC), AUC norm value for CCCCCCCCCCCCCCCC[N+](C)(C)CCN(Cc1ccc(OC)cc1)c1ncccn1 [Thonzonium Bromide] strictly below 4?
condition met

Is the reported Average Area Under the Viability Curve (AUC), AUC norm value for CC[C@@H]1C(=O)N(C)c2cnc(Nc3ccc(C(=O)N[C@H]4CC[C@H](N5CCN(CC6CC6)CC5)CC4)cc3OC)nc2N1C(C)C [BI6727 (Volasertib), Volasertib] strictly below 4?
condition met

Is the reported Average Area Under the Viability Curve (AUC), AUC norm value for Cn1c(=O)n(-c2ccc(C(C)(C)C#N)cc2)c2c3cc(-c4cnc5ccccc5c4)ccc3ncc21 [BEZ235 (NVP-BEZ235), BEZ235] strictly below 4?
condition not met

Is the reported Average Area Under the Viability Curve (AUC), AUC norm value for Cc1ccc(C(=O)N(CCCN)[C@@H](c2nc3cc(Cl)ccc3c(=O)n2Cc2ccccc2)C(C)C)cc1 [Ispinesib (SB-715992), Ispinesib] strictly below 4?
condition met

Is the reported Average Area Under the Viability Curve (AUC), AUC norm value for CCCCc1oc2ccc(NS(C)(=O)=O)cc2c1C(=O)c1ccc(OCCCN(CCCC)CCCC)cc1 [Dronedarone HCl (Multaq), Dronedarone HCl] strictly below 4?
condition met

Is the reported Average Area Under the Viability Curve (AUC), AUC norm value for CCOc1cc2ncc(C#N)c(Nc3ccc(OCc4ccccn4)c(Cl)c3)c2cc1NC(=O)/C=C/CN(C)C [Neratinib (HKI-272), Neratinib] strictly below 4?
condition met

Just for reference, patent US20250129430A1 is where these values come from.
